test: decreased DLD-1 cellular survival, CellTiter-Glo luminescent readout, NPC compound collection, primary HTS (AID 1117346); settings: DLD-1 viability, CellTiter-Glo luminescence; at 20 µM (top of the series)
The source made the active and inactive calls.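 How the source made its calls: active means compounds that lower survival of DLD-1 colon cancer cells in the luminescence readout, no cutoff given; inactive means the rest.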
Outcomes: active, inactive

| COMPOUND | LABEL_VALUE |
| --- | --- |
| S=c1nc[nH]c2nc[nH]c12 | active |
| Cc1cc(=O)oc2cc(O[C@@H]3SC[C@@H](O)[C@H](O)[C@H]3O)ccc12 | inactive |
| C#C[C@]1(O)CC[C@@H]2[C@@H]3CCC4=CCCC[C@@H]4[C@H]3C(=C)C[C@@]21CC | active |
| COC(=O)C1=C(C)NC(COC(N)=O)=C(C(=O)OC(C)C)C1c1cccc(Cl)c1Cl (configuration not stated) | active |
| Cc1cc(CC(=O)O)c(C)n1-c1ccc(Cl)cc1 | inactive |
| CC(=O)Nc1ccc(S(=O)(=O)Nc2cc(C)on2)cc1 | inactive |
| Nc1ncnc(Nc2ccccc2)n1 | inactive |
| CN1CCN(CCC(=O)N2c3ccccc3Sc3ccc(C(F)(F)F)cc32)CC1 | active |
| CC(=O)N1C[C@H](O)C[C@H]1C(=O)O | inactive |
| CC(CN1c2ccccc2Sc2ccccc21)N(C)C (configuration not stated) | inactive |
| COc1c(N2CCNC(C)C2)c(F)cc2c(=O)c(C(=O)O)cn(C3CC3)c12 (configuration not stated) | inactive |
| O=c1n(CCCN2CCN(c3cccc(Cl)c3)CC2)nc2ccccn12 | inactive |
| CC(=O)OCC(=O)[C@@]1(O)CC[C@H]2[C@@H]3CCC4=CC(=O)C=C[C@]4(C)[C@H]3[C@@H](O)C[C@@]21C | inactive |
| O=Cc1ccccc1C=O | inactive |
| CCC(=C(CC)c1ccc(OP(=O)(O)O)cc1)c1ccc(OP(=O)(O)O)cc1 | inactive |
| C[C@@]12CCC[C@H]1[C@@H]1CC[C@H]3C[C@@H](O)CC[C@]3(C)[C@H]1CC2 | active |
| CN1CC(=O)NC1=N | inactive |

====

assay: kinase inhibitors against Plasmodium liver-stage infection, cell-based, known kinase inhibitor set, luminescence, hepatoma host viability (AID 624392); settings: Plasmodium liver stage in hepatoma cells, luciferase luminescence, concentration not given here; measured here: host liver cell viability;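 further: infected cells incubated roughly two days before readout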

| COMPOUND | UNIT | liver cell % of control |
| --- | --- | --- |
| O=C1Nc2ccc(C(=O)c3ccco3)cc2/C1=C/c1cc(Cl)c(O)c(Cl)c1 | % | 143 |
| O=C1NC(=NCC(CO)c2ccccc2)SC1=Cc1ccc2ncccc2c1 (centres undefined) | % | 106 |
| CCn1c(=O)c(Oc2ccc(F)cc2F)cc2cnc(NC3CCOCC3)nc21 | % | 103 |
| CCS(=O)(=O)c1ccc(OC)c(Nc2nccc(N(C)c3ccc4c(C)[nH]nc4c3)n2)c1 | % | 95.1 |

====

target: Calcium-activated potassium channel subunit alpha-1 (Homo sapiens) + Leucine-rich repeat-containing protein 26 (Homo sapiens) (UniProt Q12791+Q2I0M4); experiment: modulators of BK channel variants, profiling panel, selectivity assay, cell-based, U2OS BacMam, thallium flux, beta subunits (AID 1259406); conditions: F380Y/Slo1WT/gamma1, at 30 µM;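 further: initial slope of Thallos dye fluorescence rise after thallium is added; log ratio against the mean of 0.3% DMSO vehicle wells on the same plate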
Sequence (Q2I0M4 whole entry, looked up, one chain of several): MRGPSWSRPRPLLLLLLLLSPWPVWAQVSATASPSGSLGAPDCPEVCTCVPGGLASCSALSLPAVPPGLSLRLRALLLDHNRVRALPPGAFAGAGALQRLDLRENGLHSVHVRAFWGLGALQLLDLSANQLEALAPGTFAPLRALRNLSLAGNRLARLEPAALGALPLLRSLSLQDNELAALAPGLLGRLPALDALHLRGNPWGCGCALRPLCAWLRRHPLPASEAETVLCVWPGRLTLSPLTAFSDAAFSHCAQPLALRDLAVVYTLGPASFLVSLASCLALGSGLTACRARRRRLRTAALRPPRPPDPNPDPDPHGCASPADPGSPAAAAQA
Label class 1 for high-side log fold change Tl+ flux (at or above -0.01) and class 0 for low-side log fold change Tl+ flux (below it).

| MOLECULE | LABEL_VALUE |
| --- | --- |
| CCC1(c2ccccc2)C(=O)NCNC1=O | class 1 |
| C[C@@H]1O[C@@H](OC[C@H]2O[C@@H](Oc3c(-c4ccc(O)c(O)c4)oc4cc(O)cc(O)c4c3=O)[C@H](O)[C@@H](O)[C@@H]2O)[C@H](O)[C@H](O)[C@H]1O | class 0 |
| NNC(=O)c1ccncc1 | class 1 |
| Cc1ccc(O)c([C@H](CCN(C(C)C)C(C)C)c2ccccc2)c1 | class 1 |
| Oc1ccc(/C=C/c2cc(O)cc(O)c2)cc1 | class 1 |
| Cn1c(=O)c2[nH]cnc2n(C)c1=O | class 0 |
| C/C=C/C(=O)N(CC)c1ccccc1C | class 1 |
| Nc1ncn([C@@H]2O[C@H](CO)[C@@H](O)[C@H]2O)c(=O)n1 | class 1 |
| O=C(CCCN1CC=C(n2c(=O)[nH]c3ccccc32)CC1)c1ccc(F)cc1 | class 0 |
| CC(C)NCC(O)c1cc(O)cc(O)c1 (stereo not given) | class 1 |
| O=C1C(CCS(=O)c2ccccc2)C(=O)N(c2ccccc2)N1c1ccccc1 (stereo not given) | class 1 |
| Cc1ccc(Cl)c(Nc2ccccc2C(=O)O)c1Cl | class 1 |
| CC(C)(C)NCC(O)c1cc(O)cc(O)c1 (stereo not given) | class 1 |
| CCOC(=O)[C@H](CCc1ccccc1)N[C@@H](C)C(=O)N1Cc2ccccc2C[C@H]1C(=O)O | class 1 |
| O=c1n(CCCN2CCN(c3cccc(Cl)c3)CC2)nc2ccccn12 | class 1 |
| CCN(CC)CC(=O)Nc1c(C)cccc1C | class 1 |
| CCCCNc1cc(C(=O)O)cc(S(N)(=O)=O)c1Oc1ccccc1 | class 0 |
| C[C@]12CCC(=O)C=C1CC[C@@H]1[C@@H]2[C@@H](O)C[C@@]2(C)[C@H]1CC[C@]2(O)C(=O)CO | class 1 |
| Cc1cccc(CN2CCN(C(c3ccccc3)c3ccc(Cl)cc3)CC2)c1 (stereo not given) | class 0 |
| OCCN1CCN(CCCN2c3ccccc3Sc3ccc(Cl)cc32)CC1 | class 0 |
| CC(C)(C)NC[C@H](O)COc1nsnc1N1CCOCC1 | class 1 |
| N[C@@H](C(=O)N[C@@H]1C(=O)N2C(C(=O)O)=C(Cl)CS[C@H]12)c1ccccc1 | class 0 |
| Nc1ccc(S(=O)(=O)c2ccc(N)cc2)cc1 | class 0 |
| CN(C)CCOC(c1ccccc1)c1ccccc1 | class 0 |
| CCCCNC(=O)NS(=O)(=O)c1ccc(C)cc1 | class 0 |
| Nc1nc2ncc(CNc3ccc(C(=O)N[C@@H](CCC(=O)O)C(=O)O)cc3)nc2c(=O)[nH]1 | class 1 |
| CC(=O)[C@H]1CC[C@H]2[C@@H]3C[C@H](C)C4=CC(=O)CC[C@]4(C)[C@H]3[C@@H](O)C[C@]12C | class 0 |
| Clc1ccc2c(c1)C(N1CCNCC1)=Nc1ccccc1O2 | class 0 |
| c1ccc(CC2=NCCN2)cc1 | class 0 |
| CC(C)NCC(O)c1ccc(O)c(O)c1 (stereo not given) | class 1 |
| COc1c(N2CCNC(C)C2)c(F)cc2c(=O)c(C(=O)O)cn(C3CC3)c12 (stereo not given) | class 1 |
| c1ccc(-c2ccc(C(c3ccccc3)n3ccnc3)cc2)cc1 (stereo not given) | class 1 |
| O=C1[C@H](CC[C@H](O)c2ccc(F)cc2)[C@@H](c2ccc(O)cc2)N1c1ccc(F)cc1 | class 1 |
| CC(CN1c2ccccc2Sc2ccccc21)N(C)C (stereo not given) | class 1 |
| CC(=O)Nc1nnc(S(N)(=O)=O)s1 | class 0 |
